PROTOCOL: Absolute bioavailability in mouse at 1 mg/kg, iv 10 mg/kg, po
Format: ADME, organism-based
CONDITION_LABEL: in vivo
Is bioavailability at least 70%? Then True. If not, False.

Please review the entries below; each comes with its answer.
SUBSTANCE_SMILES: Cc1c(N2C(=O)c3c(Cl)ccc(NS(=O)(=O)c4ccc(C(C)(C)C)cc4)c3C2=O)ccc[n+]1[O-]
LABEL: False
--
SUBSTANCE_SMILES: COc1ccncc1N1C(=O)c2c(Cl)ccc(NS(=O)(=O)c3ccc(C(C)(C)C)cc3)c2C1=O
LABEL: True
--
SUBSTANCE_SMILES: CC(C)(C)c1ccc(S(=O)(=O)Nc2ccc(Cl)c3c2C(=O)N(Cc2ccc[n+]([O-])c2)C3=O)cc1
LABEL: False
--
SUBSTANCE_SMILES: Cc1ncccc1N1C(=O)c2c(Cl)ccc(NS(=O)(=O)c3ccc(C(C)(C)C)cc3)c2C1=O
LABEL: True
--
SUBSTANCE_SMILES: Cc1cccc(N2C(=O)c3c(Cl)ccc(NS(=O)(=O)c4ccc(C(C)(C)C)cc4)c3C2=O)n1
LABEL: True
--
SUBSTANCE_SMILES: COc1ncccc1N1C(=O)c2c(Cl)ccc(NS(=O)(=O)c3ccc(C(C)(C)C)cc3)c2C1=O
LABEL: False

Check the entry CC(C)(C)c1ccc(S(=O)(=O)Nc2ccc(Cl)c3c2C(=O)N(Cc2cccc[n+]2[O-])C3=O)cc1 : does bioavailability equal or exceed 70%?
False

Check the entry CC(C)(C)c1ccc(S(=O)(=O)Nc2ccc(Cl)cc2C(=O)c2cc[n+]([O-])cc2)cc1 : does bioavailability equal or exceed 70%?
False
